Biological target: T1, Kap104p (yeast (S. cerevisiae), UniProt P38217 1-918)
T1 construct: Kap104p, yeast homolog of Kapβ2; gene a gift from J. Aitchison, subcloned into pGEX-Tev; also called yeast Karyopherin β2 homolog; source: E. coli Rosetta(DE3)pLysS, purified (glutathione sepharose, TEV cleavage, anion exchange, gel filtration)
T1 sequence (looked up): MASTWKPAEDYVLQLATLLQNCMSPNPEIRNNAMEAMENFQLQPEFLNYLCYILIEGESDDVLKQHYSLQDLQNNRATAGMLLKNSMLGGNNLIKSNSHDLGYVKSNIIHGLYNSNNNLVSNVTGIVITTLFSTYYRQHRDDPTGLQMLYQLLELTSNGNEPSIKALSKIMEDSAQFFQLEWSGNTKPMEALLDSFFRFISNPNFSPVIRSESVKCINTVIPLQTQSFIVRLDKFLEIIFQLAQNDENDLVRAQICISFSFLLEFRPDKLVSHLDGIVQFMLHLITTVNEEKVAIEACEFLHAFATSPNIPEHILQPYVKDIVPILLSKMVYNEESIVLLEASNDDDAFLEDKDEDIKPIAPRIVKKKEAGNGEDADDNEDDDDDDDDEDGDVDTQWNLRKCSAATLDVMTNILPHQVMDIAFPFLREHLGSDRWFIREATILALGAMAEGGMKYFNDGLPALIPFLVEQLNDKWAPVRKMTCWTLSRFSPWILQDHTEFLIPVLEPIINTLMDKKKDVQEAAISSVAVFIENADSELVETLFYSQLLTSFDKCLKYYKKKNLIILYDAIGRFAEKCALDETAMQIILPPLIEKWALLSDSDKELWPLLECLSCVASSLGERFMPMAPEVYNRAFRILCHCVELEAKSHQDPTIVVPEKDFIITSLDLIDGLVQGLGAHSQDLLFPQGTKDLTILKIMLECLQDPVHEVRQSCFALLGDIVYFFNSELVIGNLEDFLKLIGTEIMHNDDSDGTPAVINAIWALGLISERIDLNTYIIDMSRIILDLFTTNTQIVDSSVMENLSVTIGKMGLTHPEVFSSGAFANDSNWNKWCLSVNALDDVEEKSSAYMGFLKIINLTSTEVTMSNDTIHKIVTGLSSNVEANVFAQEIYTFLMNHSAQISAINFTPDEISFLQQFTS
Assay: ITC; 90–350 μM MBP-NLS titrated into 9–35 μM Kap104p in the cell; 20 °C; 20 mM Tris pH 7.5, 100 mM NaCl, 2 mM β-mercaptoethanol, 10% glycerol; 35 injections of 8 μl; single-site model
Conditions: both partners purified
property: KD,mutant/KD,wild type
Format: numeric value only, no unit, no commentary.

# count of solved cases: 3
- binder: "MBP–Nab2p NLS R235K (domain or fragment, S. cerevisiae, UniProt P32505 201-251, looked up, Nab2p NLS, residues 201-251; also called R235 to lysine; source: E. coli BL21(DE3), purified (amylose resin, cation exchange)) DNSQRFTQRGGGAVGKNRRGGRGGNRGGRNNNSTKFNPLAKALGMAGESNM"
  recorded-value: 1
- binder: "RDRNDRDRDYNHRSGGNHRRNGRGGRGGYNAANNGYHPYNR (domain or fragment, S. cerevisiae, UniProt Q99383 494-534, looked up, Hrp1p NLS, residues 494-534; source: E. coli BL21(DE3), purified (amylose resin, cation exchange)) [MBP–Hrp1p NLS 524RR525/AA]"
  recorded-value: 1.7
- binder: "MBP–Nab2p NLS F236A (domain or fragment, S. cerevisiae, UniProt P32505 201-251, looked up, Nab2p NLS, residues 201-251; source: E. coli BL21(DE3), purified (amylose resin, cation exchange)) DNSQRFTQRGGGAVGKNRRGGRGGNRGGRNNNSTRANPLAKALGMAGESNM"
  recorded-value: 8

// below: KD,mutant/KD,wild type requested for another binder
Recorded KD,mutant/KD,wild type (binder MBP–Nab2p NLS R235H (domain or fragment, S. cerevisiae, UniProt P32505 201-251, looked up, Nab2p NLS, residues 201-251; also called R235 to histidine; source: E. coli BL21(DE3), purified (amylose resin, cation exchange)) DNSQRFTQRGGGAVGKNRRGGRGGNRGGRNNNSTHFNPLAKALGMAGESNM ): 1.7
